Data credit: patent US20260184768A1

# ASSAYED_TARGET: T1, PcrV (aa136-257).6xhis (Pseudomonas aeruginosa)
# T1 chain: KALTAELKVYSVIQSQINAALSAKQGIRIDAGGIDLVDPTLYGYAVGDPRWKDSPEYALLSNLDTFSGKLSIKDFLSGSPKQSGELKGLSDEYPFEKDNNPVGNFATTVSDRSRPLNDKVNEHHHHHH
# TEST_NAME: SPR (Biacore T200), mAb captured via anti-human Fc, PcrV injected, 25 C
Kd for assorted binders
REPORTED_PROPERTY: Kd (nM)

>  <BINDER>
H1H29336P (antibody, V domains shown) VH: EVQLVESGGGLVQPGGSLRLSCAASGFTFSSYAMTWVRQAPGKGLEWVSSIRGSGYSSDYADSVKGRFTISRDNSENTVYLQMNRLRAEDTAVYYCAKERSVTAYYYYGMDVWGQGTTVTVSS VL: DIQLTQSPSFLSASVGDRVTITCWASQDISSFLTWYQQKPGIAPKLLIYTASTLQSGVPSRFSGSGSGTEFTLTISSLQPEDFATYYCQQLKSYPLTFGGGTKVEIKR

>  <MEASURED_VALUE>
0.0408

$$$$
>  <BINDER>
H1H29329P (antibody, V domains shown) VH: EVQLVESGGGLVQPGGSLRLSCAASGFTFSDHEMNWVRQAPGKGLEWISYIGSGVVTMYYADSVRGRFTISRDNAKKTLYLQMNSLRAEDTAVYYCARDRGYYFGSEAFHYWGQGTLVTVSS VL: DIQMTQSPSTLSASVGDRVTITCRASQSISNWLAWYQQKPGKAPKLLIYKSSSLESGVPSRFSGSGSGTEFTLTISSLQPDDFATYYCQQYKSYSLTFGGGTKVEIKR

>  <MEASURED_VALUE>
15

$$$$
>  <BINDER>
REGN3514 (antibody, V domains shown, also called Control I; Control I-REGN3514) VH: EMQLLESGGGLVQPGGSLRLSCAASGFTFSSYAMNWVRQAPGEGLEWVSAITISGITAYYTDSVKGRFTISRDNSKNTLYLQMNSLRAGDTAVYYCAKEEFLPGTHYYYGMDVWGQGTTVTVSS VL: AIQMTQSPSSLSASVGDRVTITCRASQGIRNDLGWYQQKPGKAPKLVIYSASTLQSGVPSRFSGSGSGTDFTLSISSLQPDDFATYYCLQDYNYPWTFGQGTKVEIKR

>  <MEASURED_VALUE>
0.83

$$$$
>  <BINDER>
H1H29332P (antibody, V domains shown) VH: EVQLVESGGDLVQPGGSLRLSCKASGFTFSTFAMNWVRQAPGRGLEWVSAIGASGYSTYYVDSMKGRFTISRDNSKNTLYLQMNSLGAEDTAVYYCAKEYSVSSNYYYGMDVWGQGTTVTVSS VL: DIQMTQSPSSLSASVGDRVTITCRASQTIRRYLNWYQQKAGKAPKLLIYAASSLLSGVPSRFSASGSGTDFTLTISSLQPEDFSTYYCQQTYSIPITFGQGTRLEIKR

>  <MEASURED_VALUE>
0.285

$$$$
>  <BINDER>
H1H29339P (antibody, V domains shown) VH: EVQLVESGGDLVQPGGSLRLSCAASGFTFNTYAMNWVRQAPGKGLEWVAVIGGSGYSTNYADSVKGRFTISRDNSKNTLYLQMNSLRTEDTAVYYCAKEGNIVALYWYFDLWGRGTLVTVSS VL: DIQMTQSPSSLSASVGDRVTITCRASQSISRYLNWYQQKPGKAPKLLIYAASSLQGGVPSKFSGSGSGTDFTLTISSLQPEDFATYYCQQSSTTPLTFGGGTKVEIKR

>  <MEASURED_VALUE>
0.0955

$$$$
>  <BINDER>
REGN3977 (antibody, V domains shown, also called Control III; REGN3977-Control III) VH: QVQLKQSGPGLVQPSQSLSITCTVSGFSLTSYGVHWVRQSPGKGLEWLGVIWSGGDTDYNAAFISRLSISKDNSKSQLFFKMNSLRATDTAIYYCARNRGDIYYDFTYAMDYWGQGTSVTVSS VL: DIQMTQSPASLSASVGETVTITCRASGNIQNYLAWYQQTQGKSPQLLVYSAKTLADGVPSRFSGSGSGTQYSLKINSLQPEDFGSYYCQHFWSTPYTFGGGTKLEIKR

>  <MEASURED_VALUE>
4.28

$$$$
